assay.protocol: AUC (0 to infinity) in Sprague-Dawley rat at 1 mg/kg, iv
Type: ADME, organism-based
Design: dose 1 mg/kg, route iv
stated.conditions: in vivo
reported.property: AUC(0-inf) (ng·h/mL)

CC(=O)Nc1cc(Oc2ccc(NC(=O)Cc3ccccc3C(F)(F)F)cc2)ncn1 = 1590

###

System: BaF3
assay.protocol: Antiproliferative activity against mouse BaF3 cells assessed as cell growth inhibition incubated for 72 hrs by CCK-8 assay
Type: functional
reported.property: GI50 (µM)

Cc1ccc(NC(=O)Nc2ccc(Oc3cc(N4CCNC[C@@H]4C)ncn3)cc2)cc1C(F)(F)F = 8.12
CC(=O)Nc1cc(Oc2ccc(NC(=O)Nc3ccc(CN4CCN(C)CC4)c(C(F)(F)F)c3)cc2)ncn1 = 0.05
Cc1ccc(NC(=O)Nc2ccc(Oc3cc(N(C)CCN(C)C)ncn3)cc2)cc1C(F)(F)F = 9.41
COCCNc1cc(Oc2ccc(NC(=O)Nc3ccc(C)c(C(F)(F)F)c3)cc2)ncn1 = 7.95
Cc1ccc(NC(=O)Nc2ccc(Oc3cc(/N=C/N(C)C)ncn3)cc2)cc1C(F)(F)F = 6.61
CC(=O)Nc1cc(Oc2ccc(NC(=O)Nc3ccc(C)c(C(F)(F)F)c3)cc2)ncn1 = 3.23
Cc1ccc(NC(=O)Nc2ccc(Oc3cc(N4CCN[C@H](C)C4)ncn3)cc2)cc1C(F)(F)F = 8.92
CCC(=O)Nc1cc(Oc2ccc(NC(=O)Nc3ccc(C)c(C(F)(F)F)c3)cc2)ncn1 = 0.99
CC(=O)Nc1cc(Oc2ccc(NC(=O)Nc3cc(-n4cnc(C)c4)cc(C(F)(F)F)c3)cc2)ncn1 = 1.32

###

assay.protocol: Clearance in Sprague-Dawley rat at 10 mg/kg, po
Type: ADME, organism-based
stated.conditions: in vivo, read-out: CL(app) (converted)
reported.property: CL/F

CC(=O)Nc1cc(Oc2ccc(NC(=O)Cc3ccccc3C(F)(F)F)cc2)ncn1 = 6.67 mL/min/kg

###

Test system: BaF3
assay.protocol: Antiproliferative activity against mouse BaF3 cells transfected with TEL-fused cKIT assessed as cell growth inhibition incubated for 72 hrs by CCK-8 assay
Format: functional
Definition: the class of an entry is the range in I = under 0.01 µM, II = from 0.01 µM up to 0.4 µM, III = 0.4 µM and over that contains its GI50.

Cc1ccc(NC(=O)Nc2ccc(Oc3cc(N(C)CCO)ncn3)cc2)cc1C(F)(F)F = II
CC(=O)Nc1cc(Oc2ccc(NC(=O)Cc3ccc(C(F)(F)F)cc3)cc2)ncn1 = II
CC(=O)Nc1cc(Oc2ccc(NC(=O)Cc3ccc(C(F)(F)F)cc3C(F)(F)F)cc2)ncn1 = III
CC(=O)Nc1cc(Oc2ccc(CC(=O)Nc3ccc(C)c(C(F)(F)F)c3)cc2)ncn1 = II
COc1ccc(CNc2cc(Oc3ccc(NC(=O)Nc4ccc(C)c(C(F)(F)F)c4)cc3)ncn2)cc1 = II
CC(=O)Nc1cc(Oc2ccc(NC(=O)Nc3ccc(C)c(C(F)(F)F)c3)cc2)ncn1 = I
CC(=O)Nc1cc(Oc2ccc(NC(=O)Cc3ccc(Cl)cc3Cl)cc2)ncn1 = III
CC(=O)Nc1cc(Oc2ccc(NC(=O)Cc3ccccc3C(F)(F)F)cc2)ncn1 = III
CC(=O)Nc1cc(Oc2ccc(NC(=O)Cc3ccc4ccccc4c3)cc2)ncn1 = II
COCCNc1cc(Oc2ccc(NC(=O)Nc3ccc(C)c(C(F)(F)F)c3)cc2)ncn1 = II
Cc1ccc(NC(=O)Nc2ccc(Oc3cc(NCCN)ncn3)cc2)cc1C(F)(F)F = II
Cc1ccc(NC(=O)Nc2ccc(Oc3cc(N4CCN[C@H](C)C4)ncn3)cc2)cc1C(F)(F)F = III
Cc1ccc(NC(=O)Nc2ccc(Oc3cc(N)ncn3)cc2)cc1C(F)(F)F = I
Cc1ccc(NC(=O)Nc2ccc(Oc3cc(NCc4ccccc4)ncn3)cc2)cc1C(F)(F)F = II
CC(=O)Nc1cc(Oc2ccc(NC(=O)Cc3c(Cl)cccc3Cl)cc2)ncn1 = III
CC(=O)Nc1cc(Oc2ccc(NC(=O)Nc3ccc(CN4CCN(C)CC4)c(C(F)(F)F)c3)cc2)ncn1 = I
Cc1ccc(NC(=O)Nc2ccc(Oc3cc(N(C)CCN(C)C)ncn3)cc2)cc1C(F)(F)F = III

###

Tested on: BaF3
assay.protocol: Antiproliferative activity against mouse BaF3 cells transfected with TEL-fused cKIT assessed as cell growth inhibition incubated for 72 hrs by CCK-8 assay
Format: functional
reported.property: log10(GI50) (log10 of the value in nM)

Cc1ccc(NC(=O)Nc2ccc(Oc3cc(/N=C/N(C)C)ncn3)cc2)cc1C(F)(F)F = 1.08
CNc1cc(Oc2ccc(NC(=O)Nc3ccc(C)c(C(F)(F)F)c3)cc2)ncn1 = 1.45
CC(=O)Nc1cc(Oc2ccc(NC(=O)Cc3ccc(Cl)c(Cl)c3)cc2)ncn1 = 2.42
Cc1ccc(NC(=O)Nc2ccc(Oc3cc(NCCO)ncn3)cc2)cc1C(F)(F)F = 1.59
CCN1CCN(Cc2ccc(NC(=O)Nc3ccc(Oc4cc(NC(C)=O)ncn4)cc3)cc2C(F)(F)F)CC1 = 1.23
CC(=O)Nc1cc(Oc2ccc(CC(=O)Nc3ccc(C(F)(F)F)cc3)cc2)ncn1 = 2.77
CNCCN(C)c1cc(Oc2ccc(NC(=O)Nc3ccc(C)c(C(F)(F)F)c3)cc2)ncn1 = 3.92
Cc1ccc(NC(=O)Nc2ccc(Oc3cc(N4CCNC[C@@H]4C)ncn3)cc2)cc1C(F)(F)F = 3.45
Cc1ccc(NC(=O)Nc2ccc(Oc3cc(N4CCNC[C@H]4C)ncn3)cc2)cc1C(F)(F)F = 3.00

###

assay.protocol: AUC (0 to t) in Sprague-Dawley rat at 1 mg/kg, iv
Assay type: ADME, organism-based
Set-up: dose 1 mg/kg, route iv
stated.conditions: in vivo
reported.property: AUC(0-t) (ng·h/mL)

CC(=O)Nc1cc(Oc2ccc(NC(=O)Cc3ccccc3C(F)(F)F)cc2)ncn1 = 1560

###

assay.protocol: Tmax in Sprague-Dawley rat at 10 mg/kg, po
Assay type: ADME, organism-based
stated.conditions: in vivo
reported.property: Tmax

CC(=O)Nc1cc(Oc2ccc(NC(=O)Cc3ccccc3C(F)(F)F)cc2)ncn1 = 2 h

###

assay.protocol: Cmax in Sprague-Dawley rat at 10 mg/kg, po
Type: ADME, organism-based
Design: dose 10 mg/kg, route po
stated.conditions: in vivo
reported.property: Cmax (ng/mL)

CC(=O)Nc1cc(Oc2ccc(NC(=O)Cc3ccccc3C(F)(F)F)cc2)ncn1 = 3630

###

tgt: Platelet-derived growth factor receptor beta (Homo sapiens)
Sequence (P09619 whole entry): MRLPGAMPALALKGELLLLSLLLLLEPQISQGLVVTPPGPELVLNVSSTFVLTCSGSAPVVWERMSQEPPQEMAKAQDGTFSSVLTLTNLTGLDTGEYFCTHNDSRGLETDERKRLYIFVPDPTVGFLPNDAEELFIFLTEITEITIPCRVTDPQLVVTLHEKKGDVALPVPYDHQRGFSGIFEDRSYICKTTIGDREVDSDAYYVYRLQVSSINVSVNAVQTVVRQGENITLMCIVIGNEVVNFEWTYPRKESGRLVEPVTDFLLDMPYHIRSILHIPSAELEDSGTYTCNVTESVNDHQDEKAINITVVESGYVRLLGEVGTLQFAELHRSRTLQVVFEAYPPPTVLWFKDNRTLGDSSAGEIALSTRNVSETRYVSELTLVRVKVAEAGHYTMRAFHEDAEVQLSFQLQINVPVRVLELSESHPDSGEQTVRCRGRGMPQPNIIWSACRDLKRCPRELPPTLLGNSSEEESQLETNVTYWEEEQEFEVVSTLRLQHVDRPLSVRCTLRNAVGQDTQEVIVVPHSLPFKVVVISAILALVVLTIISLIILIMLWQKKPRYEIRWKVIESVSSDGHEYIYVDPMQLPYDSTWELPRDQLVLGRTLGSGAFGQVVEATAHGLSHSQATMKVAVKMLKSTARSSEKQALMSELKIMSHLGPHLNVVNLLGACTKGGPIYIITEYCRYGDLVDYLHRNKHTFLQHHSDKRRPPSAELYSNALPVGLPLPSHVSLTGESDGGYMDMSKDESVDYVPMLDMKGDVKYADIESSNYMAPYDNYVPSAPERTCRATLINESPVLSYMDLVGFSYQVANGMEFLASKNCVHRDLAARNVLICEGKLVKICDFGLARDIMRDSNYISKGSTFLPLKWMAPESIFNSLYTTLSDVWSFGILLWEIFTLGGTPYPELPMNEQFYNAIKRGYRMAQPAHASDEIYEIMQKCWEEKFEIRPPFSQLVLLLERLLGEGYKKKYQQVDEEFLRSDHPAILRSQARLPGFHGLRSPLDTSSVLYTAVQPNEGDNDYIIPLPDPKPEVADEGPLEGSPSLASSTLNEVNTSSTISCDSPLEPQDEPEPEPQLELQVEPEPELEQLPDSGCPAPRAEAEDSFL
reported.property: IC50 (nM)

CC(=O)Nc1cc(Oc2ccc(NC(=O)Cc3ccccc3C(F)(F)F)cc2)ncn1 = 207

###

System: BaF3
assay.protocol: Antiproliferative activity against mouse BaF3 cells transfected with TEL-fused FLT3 assessed as cell growth inhibition incubated for 72 hrs by CCK-8 assay
Format: functional
Definition: the class of an entry is the range in bottom (below 0.02 µM), middle (0.02 µM to below 0.2 µM), top (0.2 µM or more) that contains its GI50.

CC(=O)Nc1cc(Oc2ccc(NC(=O)Nc3ccc(C)c(C(F)(F)F)c3)cc2)ncn1 = bottom
Cc1ccc(NC(=O)Nc2ccc(Oc3cc(N4CCN[C@H](C)C4)ncn3)cc2)cc1C(F)(F)F = top
Cc1ccc(NC(=O)Nc2ccc(Oc3cc(N)ncn3)cc2)cc1C(F)(F)F = bottom
CC(=O)Nc1cc(Oc2ccc(CC(=O)Nc3ccc(C)c(C(F)(F)F)c3)cc2)ncn1 = bottom
Cc1ccc(NC(=O)Nc2ccc(Oc3cc(N4CCNC[C@@H]4C)ncn3)cc2)cc1C(F)(F)F = top
CC(=O)Nc1cc(Oc2ccc(NC(=O)Cc3ccc(Cl)cc3Cl)cc2)ncn1 = bottom
Cc1ccc(NC(=O)Nc2ccc(Oc3cc(N(C)CCN(C)C)ncn3)cc2)cc1C(F)(F)F = top
CC(=O)Nc1cc(Oc2ccc(NC(=O)Cc3cccc(C(F)(F)F)c3)cc2)ncn1 = middle
CCN1CCN(Cc2ccc(NC(=O)Nc3ccc(Oc4cc(NC(C)=O)ncn4)cc3)cc2C(F)(F)F)CC1 = bottom
CNCCN(C)c1cc(Oc2ccc(NC(=O)Nc3ccc(C)c(C(F)(F)F)c3)cc2)ncn1 = top
CNc1cc(Oc2ccc(NC(=O)Nc3ccc(C)c(C(F)(F)F)c3)cc2)ncn1 = bottom
CC(=O)Nc1cc(Oc2ccc(CC(=O)Nc3ccc(C(F)(F)F)cc3)cc2)ncn1 = bottom
CC(=O)Nc1cc(Oc2ccc(NC(=O)Cc3cccc4ccccc34)cc2)ncn1 = middle
CC(=O)Nc1cc(Oc2ccc(NC(=O)Cc3ccccc3C(F)(F)F)cc2)ncn1 = top
CC(=O)Nc1cc(Oc2ccc(NC(=O)Cc3ccc4ccccc4c3)cc2)ncn1 = middle
CC(=O)Nc1cc(Oc2ccc(CC(=O)Nc3ccccc3)cc2)ncn1 = top
Cc1ccc(NC(=O)Nc2ccc(Oc3cc(NCCN)ncn3)cc2)cc1C(F)(F)F = bottom
CCC(=O)Nc1cc(Oc2ccc(NC(=O)Nc3ccc(C)c(C(F)(F)F)c3)cc2)ncn1 = bottom
